Provenance of the data: the Immune Epitope Database (IEDB)

- tested_target: HLA-A*23:01
- assay_procedure: IEDB peptide-MHC binding, purified MHC/competitive/radioactivity; filed as Kd, often an IC50 or EC50 that approximates it; bounds were set here for any values at or beyond the usual limits of such assays
- experimental_setup: source organism: Lassa virus Josiah
experimental_readout: Kd (µM)
Value expressed in µM; do not type the unit.

Field request: Kd | item: YCNYSKYWYL 1.15

----------
- tested_target: HLA-B*15:01
- assay_procedure: IEDB peptide-MHC binding, purified MHC/competitive/fluorescence; bounds were set here for any values at or beyond the usual limits of such assays
- experimental_setup: source organism: Zaire ebolavirus
experimental_readout: pIC50
On this scale, pIC50 is minus log10 of a concentration expressed in M (mol/L).

Field request: pIC50 | item: YLEGHGFRF 4.75

Okay, next one:
Field request: pIC50 | item: MASENSSAM 4.66

----------
- tested_target: HLA-A*24:02
- assay_procedure: IEDB peptide-MHC binding, purified MHC/competitive/radioactivity; filed as Kd, often an IC50 or EC50 that approximates it; bounds were set here for any values at or beyond the usual limits of such assays
- experimental_setup: source organism: Dengue virus 4 Philippines/H241/1956
experimental_readout: Kd (nM)
Value expressed in nM; do not type the unit.

Field request: Kd | item: TWAKNIHTAI 2000

----------
- tested_target: HLA-B*15:01
- assay_procedure: IEDB peptide-MHC binding, purified MHC/direct/fluorescence; filed as Kd, often an IC50 or EC50 that approximates it; bounds were set here for any values at or beyond the usual limits of such assays
- experimental_setup: source organism: Bacillus licheniformis
experimental_readout: Kd
Mention the unit after the number when you answer.

Field request: Kd | item: GVGAPTTTY 120 nM

----------
- tested_target: HLA-B*39:01
- assay_procedure: IEDB peptide-MHC binding, purified MHC/competitive/fluorescence; filed as Kd, often an IC50 or EC50 that approximates it; bounds were set here for any values at or beyond the usual limits of such assays
- experimental_setup: source organism: Human immunodeficiency virus 1
experimental_readout: Kd

Observed Kd on HLA-B*39:01 for KSLFNTVATLY , please. ≥ 20 µM

----------
- tested_target: HLA-B*35:01
- assay_procedure: IEDB peptide-MHC binding, purified MHC/competitive/fluorescence; filed as Kd, often an IC50 or EC50 that approximates it; bounds were set here for any values at or beyond the usual limits of such assays
- experimental_setup: source organism: Mycobacterium tuberculosis C
experimental_readout: pKd
On this scale, pKd is minus log10 of a concentration expressed in M (mol/L).

Field request: pKd | item: LTFLDCLYY 7.15

----------
- tested_target: HLA-C*14:02
- assay_procedure: IEDB peptide-MHC binding, purified MHC/direct/fluorescence; filed as Kd, often an IC50 or EC50 that approximates it; bounds were set here for any values at or beyond the usual limits of such assays
- experimental_setup: source organism: Mycobacterium tuberculosis H37Ra
pKd: −log10 of the molar value.
experimental_readout: pKd

Field request: pKd | item: AEAASATPL ≤ 4.70

----------
- tested_target: HLA-B*46:01
- assay_procedure: IEDB peptide-MHC binding, purified MHC/competitive/fluorescence; filed as Kd, often an IC50 or EC50 that approximates it; bounds were set here for any values at or beyond the usual limits of such assays
- experimental_setup: source organism: Orthohantavirus sinnombreense
pKd: −log10 of the molar value.
experimental_readout: pKd

Observed pKd on HLA-B*46:01 for LVTARQKLK , please. ≤ 4.70

----------
- tested_target: HLA-A*23:01
- assay_procedure: IEDB peptide-MHC binding, purified MHC/direct/fluorescence; filed as Kd, often an IC50 or EC50 that approximates it; bounds were set here for any values at or beyond the usual limits of such assays
- experimental_setup: source organism: Bacillus anthracis
experimental_readout: Kd (µM)
Value expressed in µM; do not type the unit.

Field request: Kd | item: YFENSDLNL 0.65

----------
- tested_target: HLA-A*33:01
- assay_procedure: IEDB peptide-MHC binding, purified MHC/competitive/radioactivity; filed as Kd, often an IC50 or EC50 that approximates it; bounds were set here for any values at or beyond the usual limits of such assays
- experimental_setup: source organism: Lymphocytic choriomeningitis virus (strain WE)
experimental_readout: pKd
On this scale, pKd is minus log10 of a concentration expressed in M (mol/L).

Observed pKd on HLA-A*33:01 for TSAYLISIFL , please. 5.66

----------
- tested_target: HLA-B*40:01
- assay_procedure: IEDB peptide-MHC binding, purified MHC/competitive/radioactivity; filed as Kd, often an IC50 or EC50 that approximates it; bounds were set here for any values at or beyond the usual limits of such assays
- experimental_setup: source organism: Lassa virus Josiah
experimental_readout: Kd (nM)
Value expressed in nM; do not type the unit.

Field request: Kd | item: AEAQMSIQL 22.9

----------
- tested_target: HLA-A*02:01
- assay_procedure: IEDB peptide-MHC binding, purified MHC/competitive/fluorescence; bounds were set here for any values at or beyond the usual limits of such assays
- experimental_setup: source organism: Variola virus
experimental_readout: IC50 (µM)
Value expressed in µM; do not type the unit.

Field request: IC50 | item: HTKIDSMFL 53.7

----------
Listed here: items and their measured Kd.
- tested_target: HLA-A*29:02
- assay_procedure: IEDB peptide-MHC binding, purified MHC/direct/fluorescence; filed as Kd, often an IC50 or EC50 that approximates it; bounds were set here for any values at or beyond the usual limits of such assays
- experimental_setup: source organism: Zaire ebolavirus

The following sequences have reported results that may help.
Field request: Kd | item: DRLASTVIY ≥ 20 µM

Field request: Kd | item: GIVSSMHYK ≥ 20 µM

Okay, next one:
Field request: Kd | item: AENCYNLEI ≥ 20 µM

----------
Listed here: items and their measured Kd.
- tested_target: HLA-B*18:01
- assay_procedure: IEDB peptide-MHC binding, purified MHC/competitive/radioactivity; filed as Kd, often an IC50 or EC50 that approximates it; bounds were set here for any values at or beyond the usual limits of such assays
- experimental_setup: source organism: Mammarenavirus whitewaterense

Field request: Kd | item: REPETTVVL 7.9 µM

Field request: Kd | item: SDSVCACGL ≥ 77.5 µM

----------
- tested_target: HLA-B*27:03
- assay_procedure: IEDB peptide-MHC binding, purified MHC/competitive/fluorescence; filed as Kd, often an IC50 or EC50 that approximates it; bounds were set here for any values at or beyond the usual limits of such assays
- experimental_setup: source organism: Vibrio parahaemolyticus AQ3810
experimental_readout: Kd

Observed Kd on HLA-B*27:03 for HFIYHKREK , please. ≥ 20 µM

----------
- tested_target: HLA-B*08:01
- assay_procedure: IEDB peptide-MHC binding, purified MHC/competitive/fluorescence; filed as Kd, often an IC50 or EC50 that approximates it; bounds were set here for any values at or beyond the usual limits of such assays
- experimental_setup: source organism: Vaccinia virus Copenhagen
experimental_readout: Kd (nM)
Value expressed in nM; do not type the unit.

Field request: Kd | item: NRLKPRDFK 3000

----------
- tested_target: HLA-B*83:01
- assay_procedure: IEDB peptide-MHC binding, purified MHC/competitive/fluorescence; filed as Kd, often an IC50 or EC50 that approximates it; bounds were set here for any values at or beyond the usual limits of such assays
- experimental_setup: source organism: Influenza A virus (A/swine/Hannover/1/1981(H1N1))
experimental_readout: Kd

Field request: Kd | item: RRRFVQNAL ≥ 5 µM

----------
- tested_target: HLA-A*02:03
- assay_procedure: IEDB peptide-MHC binding, purified MHC/competitive/radioactivity; filed as Kd, often an IC50 or EC50 that approximates it; bounds were set here for any values at or beyond the usual limits of such assays
- experimental_setup: source organism: Mammarenavirus machupoense
experimental_readout: Kd (nM)
Value expressed in nM; do not type the unit.

Field request: Kd | item: LLDCIMYQS 2270

----------
- tested_target: HLA-B*35:01
- assay_procedure: IEDB peptide-MHC binding, purified MHC/competitive/fluorescence; filed as Kd, often an IC50 or EC50 that approximates it; bounds were set here for any values at or beyond the usual limits of such assays
- experimental_setup: source organism: Choclo virus
experimental_readout: Kd

Field request: Kd | item: LPSSSSYSY ≤ 0.1 nM

----------
- tested_target: HLA-B*51:01
- assay_procedure: IEDB peptide-MHC binding, purified MHC/competitive/fluorescence; filed as Kd, often an IC50 or EC50 that approximates it; bounds were set here for any values at or beyond the usual limits of such assays
- experimental_setup: source organism: Mycobacterium tuberculosis C
experimental_readout: Kd

Observed Kd on HLA-B*51:01 for SLVAIHLAC , please. ≥ 20 µM

----------
- tested_target: HLA-C*04:01
- assay_procedure: IEDB peptide-MHC binding, purified MHC/competitive/fluorescence; filed as Kd, often an IC50 or EC50 that approximates it; bounds were set here for any values at or beyond the usual limits of such assays
- experimental_setup: source organism: Francisella tularensis subsp. tularensis FSC198
pKd: −log10 of the molar value.
experimental_readout: pKd

Field request: pKd | item: MGAGLVFPI ≤ 5.30
